Measured values drawn from patent US20120232070A1 for this set.

Target: hNurr1_RXRγFL (NURR1/RXRγ heterodimer) (Homo sapiens, UniProt P43354+P48443)
Sequence (P43354 328-598): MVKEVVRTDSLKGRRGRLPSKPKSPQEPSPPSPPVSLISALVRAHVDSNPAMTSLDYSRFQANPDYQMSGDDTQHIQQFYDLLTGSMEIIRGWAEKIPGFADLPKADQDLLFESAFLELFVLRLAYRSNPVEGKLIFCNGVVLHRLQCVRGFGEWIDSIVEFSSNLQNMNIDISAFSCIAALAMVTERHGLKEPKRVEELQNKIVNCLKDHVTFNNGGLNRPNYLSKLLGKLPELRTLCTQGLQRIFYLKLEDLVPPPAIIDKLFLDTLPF
Sequence (P48443 whole entry, the tested form may be a part): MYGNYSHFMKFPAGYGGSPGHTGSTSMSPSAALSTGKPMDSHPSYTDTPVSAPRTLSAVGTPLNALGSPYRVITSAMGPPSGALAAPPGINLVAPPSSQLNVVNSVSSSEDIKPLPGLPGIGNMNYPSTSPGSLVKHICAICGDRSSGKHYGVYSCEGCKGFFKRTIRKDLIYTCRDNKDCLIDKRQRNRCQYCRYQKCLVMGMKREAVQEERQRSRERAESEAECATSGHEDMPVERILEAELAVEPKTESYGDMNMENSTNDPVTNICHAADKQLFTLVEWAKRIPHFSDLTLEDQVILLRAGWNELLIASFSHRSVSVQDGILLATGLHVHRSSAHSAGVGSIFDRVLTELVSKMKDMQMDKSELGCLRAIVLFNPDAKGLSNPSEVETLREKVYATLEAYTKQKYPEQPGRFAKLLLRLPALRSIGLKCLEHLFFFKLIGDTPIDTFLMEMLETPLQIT
Test: Transactivation assay in Cos-7 cells, NURR-1-Gal4 / RXRγ, luciferase reporter
Format: cell-based
Details: COS-7, read-out: hNurr1_RXRγFL Eff (%), efficacy in % relative to the reference XCT0135908 at 2·10^−5 M (=100%)
Kindly return label 1 if reported Emax is no lower than 60%; return label 0 if it is lower.

The examples below pair each entry with its known result.
| compound | category |
| --- | --- |
| COC(=O)c1ccc(Cc2cc3cc(C(F)(F)F)c(F)cc3n2S(=O)(=O)c2cccc(C(C)(C)C)c2)cc1 [Example 110] | label 1 |
| CC(C)(C)c1cccc(S(=O)(=O)n2c(Cc3ccc(C(=O)O)o3)cc3cc(C(F)(F)F)ccc32)c1 [Example 69] | label 1 |

Does CC(C)(CO)c1cccc(S(=O)(=O)n2c(Cc3ccc(C(=O)O)cc3)cc3cc(C(F)(F)F)ccc32)c1 [Example 231] have a reported Emax of at least 60%? label 1

Does Cc1c(Cc2nc(C(=O)O)cs2)n(S(=O)(=O)c2cccc(C(C)(C)C)c2)c2ccc(C(F)(F)F)cc12 [Example 86] have a reported Emax of at least 60%? label 0

Does CC1(C)CCc2ccc(S(=O)(=O)n3c(Cc4ccc(C(=O)O)cc4)cc4cc(Cl)ccc43)cc2O1 [Example 173] have a reported Emax of at least 60%? label 1

Does CCCCCc1ccc(S(=O)(=O)n2c(Cc3ccc(C(=O)O)cc3)cc3cc(Cl)ccc32)cc1 [Example 170] have a reported Emax of at least 60%? label 0

Does O=C(O)c1ccc(Cc2cc3cc(Cl)ccc3n2S(=O)(=O)c2ccc(F)c(Cl)c2)cc1 [Example 150] have a reported Emax of at least 60%? label 1

Does O=C(O)c1ccc(Cc2cc3cc(Cl)ccc3n2S(=O)(=O)c2cccc(F)c2)cc1 [Example 154] have a reported Emax of at least 60%? label 1

Does CC(C)c1ccc(S(=O)(=O)n2c(Cc3ccc(C(=O)O)c(O)c3)cc3cc(C(F)(F)F)ccc32)cc1 [Example 68] have a reported Emax of at least 60%? label 0

Does CC(C)(C)c1cccc(S(=O)(=O)n2c(Cc3ccc(C4=NOC(=O)C4)cc3)cc3cc(C(F)(F)F)ccc32)c1 [Example 228] have a reported Emax of at least 60%? label 1

Does Cc1cc(S(=O)(=O)n2c(Cc3ccc(C(=O)O)cc3)cc3cc(C(F)(F)F)ccc32)ccc1Cl [Example 121] have a reported Emax of at least 60%? label 0

Does CC(C)(C)c1cccc(S(=O)(=O)n2c(Cc3ccc(S(N)(=O)=O)cc3)cc3cc(C(F)(F)F)ccc32)c1 [Example 198] have a reported Emax of at least 60%? label 1

Does O=C(O)c1ccc(Cc2cc3cc(C(F)(F)F)ccc3n2S(=O)(=O)c2cccc(SC(F)F)c2)cc1 [Example 126] have a reported Emax of at least 60%? label 0

Does O=C(O)c1ccc(Cc2cc3cc(Cl)ccc3n2S(=O)(=O)c2ccc(-c3ccccc3)cc2)cc1 [Example 151] have a reported Emax of at least 60%? label 0
